- ASSAY COMMENT: Metabolic stability in mouse liver microsomes assessed as intrinsic clearance in presence of NADPH measured upto 60 mins by LC-MS/MS analysis
- Format: ADME, Microsome
- CONDITION SET: read-out: CLH

COMPOUND STRUCTURE: Cc1nc(N[C@H](C)c2cccc(C(F)F)c2F)c2cc3c(cc2n1)OC[C@H]1CN(C(=O)[C@H]2CCOC2)CCN31
CLint scaled (mL/min/kg): 209
//
COMPOUND STRUCTURE: COc1cc2nc(C)nc(N[C@H](C)c3cc(N)cc(C(F)(F)F)c3)c2cc1O[C@H]1CCOC1
CLint scaled (mL/min/kg): 504

* * *

# key: entry, value: half-life
- ASSAY COMMENT: Half life in ICR mouse at 10 mg/kg, po by LC-MS/MS analysis
- Assay type: ADME, organism-based
- CONDITION SET: in vivo

COMPOUND STRUCTURE: CC(=O)N1CCN2c3cc4c(N[C@H](C)c5cccc(C(F)F)c5F)nc(C)nc4cc3OC[C@H]2C1
half-life [h]: 1.87
--
COMPOUND STRUCTURE: CC(=O)N1CCN2c3cc4c(N[C@H](C)c5cc(N)cc(C(F)(F)F)c5)nc(C)nc4cc3OC[C@H]2C1
half-life [h]: 1.49
--
COMPOUND STRUCTURE: CC(=O)N1CCN2c3cc4c(N[C@H](C)c5cccc(C(F)(F)C(C)(C)O)c5F)nc(C)nc4cc3OC[C@H]2C1
half-life [h]: 3.24
--
COMPOUND STRUCTURE: COc1cc2nc(C)nc(N[C@H](C)c3cc(N)cc(C(F)(F)F)c3)c2cc1O[C@H]1CCOC1
half-life [h]: 1.3

* * *

- ASSAY COMMENT: Elimination rate constant in ICR mouse at 20 mg/kg, po by LC-MS/MS analysis
- Type: ADME, organism-based
- CONDITION SET: ICR, in vivo
# key: entry, value: k el
MEASURED QUANTITY: k el (s⁻¹)

COMPOUND STRUCTURE: Cc1nc(N[C@H](C)c2cccc(C(F)F)c2F)c2cc3c(cc2n1)OC[C@H]1CN(C(=O)N(C)C)CCN31
MEASURED QUANTITY: k el
UNITS OF MEASURE: s⁻¹
OBSERVED VALUE: 2.5e-05
//
COMPOUND STRUCTURE: Cc1nc(N[C@H](C)c2cccc(C(F)F)c2F)c2cc3c(cc2n1)OC[C@H]1CN(C(=O)N2CCOCC2)CCN31
MEASURED QUANTITY: k el
UNITS OF MEASURE: s⁻¹
OBSERVED VALUE: 0.0001
//
COMPOUND STRUCTURE: COCC1(C(=O)N2CCN3c4cc5c(N[C@H](C)c6cccc(C(F)F)c6F)nc(C)nc5cc4OC[C@H]3C2)CC1
MEASURED QUANTITY: k el
UNITS OF MEASURE: s⁻¹
OBSERVED VALUE: 8.33e-05
//
COMPOUND STRUCTURE: COCC(=O)N1CCN2c3cc4c(N[C@H](C)c5cccc(C(F)F)c5F)nc(C)nc4cc3OC[C@H]2C1
MEASURED QUANTITY: k el
UNITS OF MEASURE: s⁻¹
OBSERVED VALUE: 3.06e-05
//
COMPOUND STRUCTURE: Cc1nc(N[C@H](C)c2cccc(C(F)F)c2F)c2cc3c(cc2n1)OC[C@H]1CN(C(=O)[C@@H]2CCOC2)CCN31
MEASURED QUANTITY: k el
UNITS OF MEASURE: s⁻¹
OBSERVED VALUE: 8.33e-06
//
COMPOUND STRUCTURE: CC(=O)N1CCN2c3cc4c(N[C@H](C)c5cccc(C(F)F)c5F)nc(C)nc4cc3OC[C@H]2C1
MEASURED QUANTITY: k el
UNITS OF MEASURE: s⁻¹
OBSERVED VALUE: 0.000119
//
COMPOUND STRUCTURE: Cc1nc(N[C@H](C)c2cccc(C(F)F)c2F)c2cc3c(cc2n1)OC[C@H]1CN(C(=O)C2CCOCC2)CCN31
MEASURED QUANTITY: k el
UNITS OF MEASURE: s⁻¹
OBSERVED VALUE: 9.44e-05
